B1: ZBTB22 (parent)
chain: RPFDCPVCNKKFKMKHHLTEHMKT

Variants of: B1
Experiment: protein stability index of a GFP-peptide fusion (GPS, HEK-293T) (PSI 1-6); higher = more stable;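 also: lentivirally expressed fusions sorted by FACS into six bins by GFP to DsRed ratio, PSI derived from sequencing read proportions per bin multiplied by bin number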
Conditions: c terminus: a fixed tail appended
Class label 1: protein stability index at least 3. Class label 0: protein stability index below 3.

q: Is protein stability index at least 3? Consider RPFDCPVCNKKFKMKHMLTEHMKT [H17M]
a: label 0

q: Record RPFDCPVCNKKFKMVHHLTEHMKT [K15V] ; criterion: protein stability index no lower than 3. Met?
a: label 0

q: Entry RPFDCPVCNKDFKMKHHLTEHMKT [K11D] : is its protein stability index no less than 3?
a: label 0

q: Could you please find out whether RPFDCPVCNKKFKMKHHLTEIMKT [H21I] has protein stability index that meets 3 or exceeds it?
a: label 0

q: Does protein stability index meet or surpass 3 for RPFKCPVCNKKFKMKHHLTEHMKT [D4K] ?
a: label 1

q: Threshold query (protein stability index >= 3) on RPFDCPVCNKKFKMKHHLWEHMKT [T19W]
a: label 0

q: Does protein stability index meet or surpass 3 for RPFDCPVCNKKFKMKHHLTEHMKN [T24N] ?
a: label 0

q: Decide: protein stability index of RPFDCPVCNKKFKMKHHKTEHMKT [L18K] >= 3?
a: label 0

q: Is protein stability index at least 3? Consider RPFDCPVCNKKFKMKHHLHEHMKT [T19H]
a: label 0

q: Can RPFDCPVCNKKFKMKHHLPEHMKT [T19P] be said to have protein stability index at or above 3?
a: label 0

q: Does protein stability index meet or surpass 3 for RPFDCPVCNKKFKMKQHLTEHMKT [H16Q] ?
a: label 0

q: Given the entry RPFDCPVCNKKEKMKHHLTEHMKT [F12E] , answer whether its protein stability index meets or surpasses 3.
a: label 1

q: # check: protein stability index of RPFDCPVCNKKFKMKHHLTEVMKT [H21V] is greater than or equal to 3
a: label 0

q: # check: protein stability index of RPFDCWVCNKKFKMKHHLTEHMKT [P6W] is greater than or equal to 3
a: label 0

q: Please tell me: is the variant RPFDCPVCNKKFKMKHHLTEHMPT [K23P] at or over 3 in terms of protein stability index?
a: label 0

q: Assess whether reported protein stability index for RPFDCPACNKKFKMKHHLTEHMKT [V7A] sits at 3 or higher.
a: label 0

q: Quick check: does RPFDCPVCNKNFKMKHHLTEHMKT [K11N] have protein stability index greater than or equal to 3?
a: label 0

q: Evaluate RPFDCPVCLKKFKMKHHLTEHMKT [N9L] : protein stability index at minimum 3?
a: label 0

q: Given the entry RPFDCMVCNKKFKMKHHLTEHMKT [P6M] , answer whether its protein stability index meets or surpasses 3.
a: label 0

q: Check if protein stability index >= 3 (inclusive). Item: RPFDCDVCNKKFKMKHHLTEHMKT [P6D]
a: label 1

q: Given RPFDCPVCNKKKKMKHHLTEHMKT [F12K] , state whether its protein stability index is at least 3.
a: label 0

q: Hello, I need to know if RPFDCPTCNKKFKMKHHLTEHMKT [V7T] has measured protein stability index not below 3. Thanks!
a: label 0

q: Record RPFDCPVCNKAFKMKHHLTEHMKT [K11A] ; criterion: protein stability index no lower than 3. Met?
a: label 0

q: # bool: protein stability index of RPFDCPVCNKKFKMKHHLTEHMCT [K23C] >= 3
a: label 1

q: Say whether RPFDCPVCNKKFKMKHHLTEHMMT [K23M] shows protein stability index of 3 or more.
a: label 0

q: Answer whether protein stability index of RPFDCPVCNKKFKMKHHLLEHMKT [T19L] is greater than or equal to 3.
a: label 0

q: Reported protein stability index reaches at least 3 for RPFDCNVCNKKFKMKHHLTEHMKT [P6N] ?
a: label 0

q: Please tell me: is the variant RPFDCPVCNKKFQMKHHLTEHMKT [K13Q] at or over 3 in terms of protein stability index?
a: label 1

q: Is the recorded value of protein stability index equal to or greater than 3 for this variant? RPFDLPVCNKKFKMKHHLTEHMKT [C5L]
a: label 0

q: Exam item: decide whether the reported protein stability index for RPFDCPVCNKKFKMKHHLTEHMKH [T24H] is at least 3.
a: label 0

q: Does RPFDCPVCNKKFKMKHHLTEHGKT [M22G] have a reported protein stability index of at least 3?
a: label 0

q: Please check the record RSFDCPVCNKKFKMKHHLTEHMKT [P2S] and state if its protein stability index is at or above 3.
a: label 1

q: Please indicate if the recorded protein stability index for RPFDWPVCNKKFKMKHHLTEHMKT [C5W] meets or exceeds 3.
a: label 0

q: protein stability index >= 3 for RPFDCPDCNKKFKMKHHLTEHMKT [V7D] ?
a: label 0

q: Would you say RPFDCPHCNKKFKMKHHLTEHMKT [V7H] shows protein stability index at minimum 3?
a: label 1

q: # bool: protein stability index of RPFDCEVCNKKFKMKHHLTEHMKT [P6E] >= 3
a: label 0

q: Test whether the variant RPFRCPVCNKKFKMKHHLTEHMKT [D4R] records protein stability index of 3 or higher.
a: label 1

q: Test whether the variant RPFDCPVCNKKFRMKHHLTEHMKT [K13R] records protein stability index of 3 or higher.
a: label 0

q: Please indicate if the recorded protein stability index for RPFDCPVCNKKFKMKKHLTEHMKT [H16K] meets or exceeds 3.
a: label 0

q: Reported protein stability index reaches at least 3 for FPFDCPVCNKKFKMKHHLTEHMKT [R1F] ?
a: label 0

q: Is the recorded value of protein stability index equal to or greater than 3 for this variant? RPFDCPVCNKKFKMKEHLTEHMKT [H16E]
a: label 1

q: Decide: protein stability index of RPFDCPVCNKHFKMKHHLTEHMKT [K11H] >= 3?
a: label 0

q: Check this variant for protein stability index at or above 3: RPFDCPSCNKKFKMKHHLTEHMKT [V7S]
a: label 0

q: Hi team, for RPFDCPVCNKKFKMKHHLTEHFKT [M22F] , is the recorded protein stability index at or above 3?
a: label 0

q: For this variant, is measured protein stability index 3 or higher? SPFDCPVCNKKFKMKHHLTEHMKT [R1S]
a: label 0

q: Can RPFDCPVCNKKFKMKHILTEHMKT [H17I] be said to have protein stability index at or above 3?
a: label 0

q: Kindly determine if protein stability index recorded for RPFDCPVCNKKVKMKHHLTEHMKT [F12V] is above or exactly 3.
a: label 0

q: For this variant, is measured protein stability index 3 or higher? RPFDCPVCNKKFKMFHHLTEHMKT [K15F]
a: label 0

q: Given RPFDCPVCNKKFKMKHHLFEHMKT [T19F] , state whether its protein stability index is at least 3.
a: label 0

q: Say whether RPFNCPVCNKKFKMKHHLTEHMKT [D4N] shows protein stability index of 3 or more.
a: label 0

q: Hi, just wondering whether RPFDCPVCNKKFKMKHHLTEKMKT [H21K] shows protein stability index of 3 or higher.
a: label 0

q: Does RPFDCPVCNKKFKMYHHLTEHMKT [K15Y] have a reported protein stability index of at least 3?
a: label 0

q: Does the reported protein stability index for RPFDCPVCNKKFKMKHHLTFHMKT [E20F] fall at or above the 3 mark?
a: label 0

q: Is reported protein stability index greater than or equal to 3 here: RPFDCPVCNKKFKVKHHLTEHMKT [M14V]
a: label 0

q: Kindly determine if protein stability index recorded for RPFDCPQCNKKFKMKHHLTEHMKT [V7Q] is above or exactly 3.
a: label 0

q: # bool: protein stability index of RYFDCPVCNKKFKMKHHLTEHMKT [P2Y] >= 3
a: label 0

q: In plain terms: is recorded protein stability index at least 3 for RPFDCPVCNLKFKMKHHLTEHMKT [K10L] ?
a: label 0

q: Decide: protein stability index of RPFDCPVCNKKFKFKHHLTEHMKT [M14F] >= 3?
a: label 0

q: # check: protein stability index of RPFDCPVCNKKFKMKHHPTEHMKT [L18P] is greater than or equal to 3
a: label 0

q: Quick check: does RPFDCPLCNKKFKMKHHLTEHMKT [V7L] have protein stability index greater than or equal to 3?
a: label 0

q: Does RPFDCPVCNKKFKMKHHLTMHMKT [E20M] have a reported protein stability index of at least 3?
a: label 0

q: Item RPFGCPVCNKKFKMKHHLTEHMKT [D4G] with protein stability index of 3 or above?
a: label 0

q: Hello, I need to know if RPFDCRVCNKKFKMKHHLTEHMKT [P6R] has measured protein stability index not below 3. Thanks!
a: label 0

q: Check if protein stability index >= 3 (inclusive). Item: RPFDCPVWNKKFKMKHHLTEHMKT [C8W]
a: label 0

q: Dear colleague, could you confirm whether RPFDCPVCNKKFKMKHHYTEHMKT [L18Y] has protein stability index at or above 3?
a: label 0

q: Hi, just wondering whether RPFDCPVCNHKFKMKHHLTEHMKT [K10H] shows protein stability index of 3 or higher.
a: label 0

q: Check this variant for protein stability index at or above 3: RPFDCPVCNKKFIMKHHLTEHMKT [K13I]
a: label 0

q: Is the recorded value of protein stability index equal to or greater than 3 for this variant? RPFDCPVCNKKFKMKHHLTVHMKT [E20V]
a: label 0

q: Can RKFDCPVCNKKFKMKHHLTEHMKT [P2K] be said to have protein stability index at or above 3?
a: label 0

q: Check if protein stability index >= 3 (inclusive). Item: RPFDCPVCNKKFKMKHHLDEHMKT [T19D]
a: label 1

q: Please indicate if the recorded protein stability index for RPFDCPVCNKKFKMKHHCTEHMKT [L18C] meets or exceeds 3.
a: label 1

q: Determine whether this variant has protein stability index no lower than 3: RPFDCPVCNKKIKMKHHLTEHMKT [F12I]
a: label 0

q: Does the reported protein stability index for RPFDKPVCNKKFKMKHHLTEHMKT [C5K] fall at or above the 3 mark?
a: label 1

q: Has DPFDCPVCNKKFKMKHHLTEHMKT [R1D] a recorded protein stability index greater than or equal to 3?
a: label 1

q: Form field: protein stability index at least 3? Entry: RPFDSPVCNKKFKMKHHLTEHMKT [C5S]
a: label 1

q: Form field: protein stability index at least 3? Entry: RPFDCPVCNKKFKLKHHLTEHMKT [M14L]
a: label 0

q: Kindly determine if protein stability index recorded for RDFDCPVCNKKFKMKHHLTEHMKT [P2D] is above or exactly 3.
a: label 1

Reference source: the supplement of paper PMC10567573
